Molecular target: T1, EsCas13d, nuclease-dead (Eubacterium siraeum, UniProt B0MS50, R295A;H300A;R849A;H854A)
T1 sequence: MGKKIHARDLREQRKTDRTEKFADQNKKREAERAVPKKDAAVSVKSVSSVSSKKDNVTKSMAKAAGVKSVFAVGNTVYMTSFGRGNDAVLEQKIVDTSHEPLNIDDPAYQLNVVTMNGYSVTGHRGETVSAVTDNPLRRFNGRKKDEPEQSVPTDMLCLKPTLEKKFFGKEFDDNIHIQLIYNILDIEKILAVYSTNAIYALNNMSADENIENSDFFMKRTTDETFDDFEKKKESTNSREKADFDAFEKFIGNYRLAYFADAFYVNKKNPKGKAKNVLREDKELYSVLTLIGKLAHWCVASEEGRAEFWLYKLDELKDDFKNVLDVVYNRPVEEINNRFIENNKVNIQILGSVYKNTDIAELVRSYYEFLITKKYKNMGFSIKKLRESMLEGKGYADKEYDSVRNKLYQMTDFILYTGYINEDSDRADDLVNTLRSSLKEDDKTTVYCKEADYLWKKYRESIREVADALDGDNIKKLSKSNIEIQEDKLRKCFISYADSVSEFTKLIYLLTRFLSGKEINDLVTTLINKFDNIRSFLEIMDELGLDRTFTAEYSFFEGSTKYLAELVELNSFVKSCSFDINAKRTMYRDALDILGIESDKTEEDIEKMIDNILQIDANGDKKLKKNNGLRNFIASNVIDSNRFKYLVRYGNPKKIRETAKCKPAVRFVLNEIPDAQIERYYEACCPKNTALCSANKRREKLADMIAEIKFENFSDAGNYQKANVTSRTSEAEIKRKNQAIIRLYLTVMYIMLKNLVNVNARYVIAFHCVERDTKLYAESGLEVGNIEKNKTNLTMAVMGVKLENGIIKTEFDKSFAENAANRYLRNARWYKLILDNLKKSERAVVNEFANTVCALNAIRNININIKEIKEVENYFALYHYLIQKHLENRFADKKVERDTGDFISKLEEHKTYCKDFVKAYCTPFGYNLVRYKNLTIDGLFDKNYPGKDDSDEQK
Assay: crRNA (strand 1, pre-loaded); Mg2+; 40 mM Tris-HCl pH 7.5, 150 mM NaCl, 6 mM MgCl2, 1 mM DTT, 0.1% Tween-20, 0.2 mg/ml BSA; 25 C; 10 min per concentration, then washed
Details: tags: His6-TwinStrep-SUMO cleaved; N-terminal SNAP kept (SNAP-Surface 488); label: 3' end held by stalled T7 RNA polymerase
Below, each entry is listed with its recorded Kd.
ASSAY METRIC: Kd (nM)

BINDER	ASSAY METRIC	ENDPOINT UNIT	OBSERVED VALUE
target 2 MT 5'PFS AAU 3'PFS CGG (mixed) RNA 1: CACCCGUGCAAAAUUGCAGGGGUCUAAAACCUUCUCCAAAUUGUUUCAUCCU RNA 2: GGGAAUGGAUCCACAUCUACGAAUUCAAUAGGAUGAAACAAUUUGGAGAAGCGGAGAUCGGAAGAGCACACGU	Kd	nM	4.6
target 1 U19G,C22U (mixed) RNA 1: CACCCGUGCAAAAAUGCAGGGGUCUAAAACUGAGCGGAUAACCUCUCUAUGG RNA 2: GGGAAUGGAUCCACAUCUACGAAUUCGUAUCAGAGAGAGGUUAUCCGCUCACCGAGAUCGGAAGAGCACACGU	Kd	nM	74
target 2 MT 5'PFS GGG 3'PFS CAA (mixed) RNA 1: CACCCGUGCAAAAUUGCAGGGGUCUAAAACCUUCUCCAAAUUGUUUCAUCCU RNA 2: GGGAAUGGAUCCACAUCUACGAAUUCGGGAGGAUGAAACAAUUUGGAGAAGCAAAGAUCGGAAGAGCACACGU	Kd	nM	4.9
target 1 C4U,G12A (mixed) RNA 1: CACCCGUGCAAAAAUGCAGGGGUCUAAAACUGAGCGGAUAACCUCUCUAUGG RNA 2: GGGAAUGGAUCCACAUCUACGAAUUCGUACCAUAGAGAGAUUAUCCGUUCACCGAGAUCGGAAGAGCACACGU	Kd	nM	23.7
target 1 insC 3' of 20 (mixed) RNA 1: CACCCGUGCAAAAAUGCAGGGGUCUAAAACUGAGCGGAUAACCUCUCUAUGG RNA 2: GGGAAUGGAUCCACAUCUACGAAUUCGUACCACUAGAGAGGUUAUCCGCUCACCGAGAUCGGAAGAGCACACGU	Kd	nM	6.4
target 1 insA 3' of 15,insU 3' of 13 (mixed) RNA 1: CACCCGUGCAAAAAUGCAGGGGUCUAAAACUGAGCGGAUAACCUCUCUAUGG RNA 2: GGGAAUGGAUCCACAUCUACGAAUUCGUACCAUAGAGAAGUGUUAUCCGCUCACCGAGAUCGGAAGAGCACACGU	Kd	nM	19
target 1 U19C (mixed) RNA 1: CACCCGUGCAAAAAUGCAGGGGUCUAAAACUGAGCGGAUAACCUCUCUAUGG RNA 2: GGGAAUGGAUCCACAUCUACGAAUUCGUACCACAGAGAGGUUAUCCGCUCACCGAGAUCGGAAGAGCACACGU	Kd	nM	21
target 1 MT 5'PFS ACG 3'PFS UUA (mixed) RNA 1: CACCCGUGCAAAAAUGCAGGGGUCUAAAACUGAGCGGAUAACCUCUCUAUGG RNA 2: GGGAAUGGAUCCACAUCUACGAAUUCACGCCAUAGAGAGGUUAUCCGCUCAUUAAGAUCGGAAGAGCACACGU	Kd	nM	6.9
target 1 insC 3' of 17,insA 3' of 12 (mixed) RNA 1: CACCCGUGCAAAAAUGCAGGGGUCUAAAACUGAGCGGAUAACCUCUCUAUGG RNA 2: GGGAAUGGAUCCACAUCUACGAAUUCGUACCAUAGCAGAGGAUUAUCCGCUCACCGAGAUCGGAAGAGCACACGU	Kd	nM	32.9
target 2 MT 5'PFS UCA 3'PFS AUU (mixed) RNA 1: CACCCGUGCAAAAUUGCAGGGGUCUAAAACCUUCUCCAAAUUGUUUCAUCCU RNA 2: GGGAAUGGAUCCACAUCUACGAAUUCUCAAGGAUGAAACAAUUUGGAGAAGAUUAGAUCGGAAGAGCACACGU	Kd	nM	4.4
target 3 C1A,A18G (mixed) RNA 1: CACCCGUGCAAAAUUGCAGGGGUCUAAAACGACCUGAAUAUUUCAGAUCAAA RNA 2: GGGAAUGGAUCCACAUCUACGAAUUCGUUUUUGGUCUGAAAUAUUCAGGUAUGCAGAUCGGAAGAGCACACGU	Kd	nM	48.5
target 1 insG 3' of 16,insU 3' of 2 (mixed) RNA 1: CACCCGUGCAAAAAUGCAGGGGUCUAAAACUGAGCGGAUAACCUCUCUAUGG RNA 2: GGGAAUGGAUCCACAUCUACGAAUUCGUACCAUAGAGGAGGUUAUCCGCUCUACCGAGAUCGGAAGAGCACACGU	Kd	nM	15.1
target 1 insC 3' of 5,insC 3' of 1 (mixed) RNA 1: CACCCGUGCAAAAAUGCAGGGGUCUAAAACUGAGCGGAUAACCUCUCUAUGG RNA 2: GGGAAUGGAUCCACAUCUACGAAUUCGUACCAUAGAGAGGUUAUCCGCCUCACCCGAGAUCGGAAGAGCACACGU	Kd	nM	19.6
target 2 MT 5'PFS UCA 3'PFS ACG (mixed) RNA 1: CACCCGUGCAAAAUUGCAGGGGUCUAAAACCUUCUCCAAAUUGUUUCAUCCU RNA 2: GGGAAUGGAUCCACAUCUACGAAUUCUCAAGGAUGAAACAAUUUGGAGAAGACGAGAUCGGAAGAGCACACGU	Kd	nM	3.6
target 1 G12U,A16U (mixed) RNA 1: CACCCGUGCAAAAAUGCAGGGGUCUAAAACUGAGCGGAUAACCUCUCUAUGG RNA 2: GGGAAUGGAUCCACAUCUACGAAUUCGUACCAUAGUGAGUUUAUCCGCUCACCGAGAUCGGAAGAGCACACGU	Kd	nM	79
